Parameter: Ki. Scope: all listed entries.
TARGET UNDER TEST: human recombinant 5-HT2B receptor (Homo sapiens, UniProt P41595)
Construct: expressed in transfected cells; host or cells: CHO
Sequence (P41595 whole entry): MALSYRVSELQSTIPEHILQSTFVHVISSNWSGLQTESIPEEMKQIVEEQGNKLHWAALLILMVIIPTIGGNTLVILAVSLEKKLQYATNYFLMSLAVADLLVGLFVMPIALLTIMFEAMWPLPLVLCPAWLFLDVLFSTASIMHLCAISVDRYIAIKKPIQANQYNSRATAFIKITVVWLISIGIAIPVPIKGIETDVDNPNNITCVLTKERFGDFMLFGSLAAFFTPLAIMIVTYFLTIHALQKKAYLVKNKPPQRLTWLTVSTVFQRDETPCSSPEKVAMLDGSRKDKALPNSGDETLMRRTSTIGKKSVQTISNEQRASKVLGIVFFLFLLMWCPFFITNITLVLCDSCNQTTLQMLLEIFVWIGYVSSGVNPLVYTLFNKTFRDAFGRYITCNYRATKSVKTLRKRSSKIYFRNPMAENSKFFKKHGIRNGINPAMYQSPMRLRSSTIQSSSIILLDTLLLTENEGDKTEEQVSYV
EXPERIMENT DESCRIPTION: Affinity for 5-HT2B receptor binding sites (competitive radioligand binding, [3H]mesulergine)
STUDY CONDITIONS: membranes of CHO with h5-HT2B, * = tested as hydrochloride salt
Description: Stock drug solutions (10 mM) were prepared in DMSO (the final assay concentration of DMSO not exceeding 0.4%). Drug dilutions were prepared in assay buffer. […] Receptor binding was performed using the human recombinant 5-HT2A (GB: X57830), 5-HT2B (GB: Z36748) and 5-HT2C (GB: M81778) receptors. The affinity of the compounds for the 3 different human 5-HT2 receptor subtypes was evaluated by competitive radioligand binding assays using [^3H]ketanserin (h5-HT2A) or [^3H]mesulergine (h5-HT2B and h5-HT2C). […]
Where a name gives a salt, the structure may show the parent alone.
Write the value in nM as a bare number.

Example results:
| COMPOUND | Ki, nM |
| --- | --- |
| Cc1ccc(-c2nc(N3CCCC3C)nc3c2CCNCC3)cc1 (stereo not drawn) | 2 |
| CCN(CC)c1nc2c(c(-c3ccc(Cl)cc3)n1)CCNCC2 | 10 |
| Fc1ccc(-c2nc(N3CCCCC3)nc3c2CNCCC3)cc1 [Example 20, hydrochloride] | 790 |
| Cc1ccc(-c2nc(N(C)C)nc3c2CNCC3)cc1 | 620 |
| CCN(CC)c1nc2c(c(-c3ccc(C#N)cc3)n1)CCNC2 | 60 |
| CCN(CC)c1nc2c(c(-c3ccc(C)cc3)n1)CCNC2 | 13 |
| COc1ccc(-c2nc(N3CCCCC3C)nc3c2CCCNC3)cc1 (stereo not drawn) [Example 5, hydrochloride] | 200 |
| Cc1ccc(-c2nc(N3CCCCCC3)nc3c2CCNC3)cc1 | 40 |

Now for a further compound.
# lookup: Ki of CCN(CC)c1nc2c(c(-c3ccc(F)cc3)n1)CCNC2
7

###

TARGET UNDER TEST: human recombinant 5-HT2A receptor (Homo sapiens)
Sequence (P28223 whole entry): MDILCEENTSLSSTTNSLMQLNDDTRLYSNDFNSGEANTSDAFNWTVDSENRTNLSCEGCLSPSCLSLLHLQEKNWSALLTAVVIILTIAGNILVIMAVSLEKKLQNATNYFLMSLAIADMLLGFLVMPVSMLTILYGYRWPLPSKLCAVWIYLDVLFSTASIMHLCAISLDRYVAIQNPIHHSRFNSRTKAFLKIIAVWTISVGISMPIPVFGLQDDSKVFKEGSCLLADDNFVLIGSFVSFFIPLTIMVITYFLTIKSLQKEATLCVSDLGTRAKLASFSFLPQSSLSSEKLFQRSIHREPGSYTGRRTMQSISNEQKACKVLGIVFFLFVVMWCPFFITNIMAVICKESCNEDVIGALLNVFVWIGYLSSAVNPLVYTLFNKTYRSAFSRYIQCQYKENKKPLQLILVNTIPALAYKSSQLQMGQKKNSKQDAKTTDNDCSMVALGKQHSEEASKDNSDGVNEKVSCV
EXPERIMENT DESCRIPTION: Affinity for 5-HT2A receptor binding sites (competitive radioligand binding, [3H]ketanserin)
STUDY CONDITIONS: membranes of NIH3T3 with h5-HT2A, * = tested as hydrochloride salt
pKi: −log10 of the molar value. Structures can show the parent of a compound that is named as a salt.
Outcome label depends on pKi relative to 7: at/above gives 1, below gives -1.

Past entries and their recorded results:
| MOLECULE | LABEL |
| --- | --- |
| Cc1ccc(-c2nc(N3[C@H](C)CCC[C@@H]3C)nc3c2CCNCC3)cn1 | -1 |
| CCN(CC)c1nc2c(c(-c3ccsc3)n1)CCNCC2 [Example 12, hydrochloride] | 1 |
| Cc1ccc(-c2nc(N3CCCCCC3)nc3c2CCN(Cc2ccccc2)C3)cc1 | -1 |
| Clc1ccc(-c2nc(N3CCOCC3)nc3c2CNCCC3)cc1 | -1 |
| CCN(CC)c1nc2c(c(-c3ccc(C)cc3)n1)CCN(Cc1ccccc1)C2 | -1 |
| Cc1ccc(-c2nc(N3CCOC[C@H]3C)nc3c2CCNCC3)cc1 | 1 |

Consider the additional molecule presented here.
# check: pKi of Clc1ccc(-c2nc(NCc3ccccc3)nc3c2CCNCC3)cc1 is greater than or equal to 7
1
